Assay: qHTS Assay for Lipid Storage Modulators (AID 1519)
Details: Drosophila S3 cells, BODIPY lipid droplet/cell ratio, laser cytometry; measured here: cell count channel max response; cells loaded with oleic acid
Records with an inconclusive call do not appear.
Value Type: max response (%)

> print(dat)
                                    compound  value
 1  CN(Cc1cnc2nc(N)nc(N)c2n1)c1ccc(C(=O)N[C@@H](CCC(=O)O)C(=O)O)cc1  -11.7
 2                                  NC(=O)NO     21
 3  CC(C)(Oc1ccc(C2CC2(Cl)Cl)cc1)C(=O)O (centres undefined)  -18.9
 4  CC(C)NCC(O)COc1ccc(CCOCC2CC2)cc1 (centres undefined)  -16.9
 5  Cc1ccc(-c2cc(C(F)(F)F)nn2-c2ccc(S(N)(=O)=O)cc2)cc1   18.8
 6  COc1ccccc1N1CCN(CC(O)COc2cccc3ccccc23)CC1 (centres undefined)  -17.8
 7  Fc1ccc([C@@H]2CCNC[C@H]2COc2ccc3c(c2)OCO3)cc1  -19.9
 8  COc1cc2nc(N(C)CCCNC(=O)C3CCCO3)nc(N)c2cc1OC (centres undefined)   5.38
 9  O=C(C1CCCCC1)N1CC(=O)N2CCc3ccccc3C2C1 (centres undefined)  -17.9
10             Nc1nnc(-c2cccc(Cl)c2Cl)c(N)n1   18.9
11                COc1nc(C)nc(Cl)c1NC1=NCCN1    -13
12           C[C@](N)(Cc1ccc(O)c(O)c1)C(=O)O   48.1
13  COc1ccccc1OCCNCC(O)COc1cccc2[nH]c3ccccc3c12 (centres undefined)   5.72
14  COc1ccccc1OCC(O)CN1CCN(CC(=O)Nc2c(C)cccc2C)CC1 (centres undefined)   8.98

* * *

Experiment: Quantitative High-Throughput drug screen in 47 multiple myeloma cell lines against the NCATS MIPE library collection: FR4_PLB cell viability assay (AID 1918924; also: nearly all actives have a fitted effect of over 35% in size)
Settings: FR4_PLB myeloma cells viability, CellTiter-Glo ATP, 48 h; series mostly up to 45.8 µM
Inconclusive results are not listed. Active and inactive are the calls of the source. The call rests on the fitted dose curve; in most records, active means well fitted cell-killing curve with a large enough effect; inconclusive means small, poorly fitted or top-dose-only effect, or effect the other way; inactive means no such curve, though single readings can be large or run the other way.
Labels: active, inactive

> print(dat)
                                    molecule     class
 1                         CN(C)C(=N)N=C(N)N  inactive
 2  COc1ccccc1OCC(O)CN1CCN(CC(=O)Nc2c(C)cccc2C)CC1 (configuration not stated)  inactive
 3       Nc1ccn([C@H]2CC[C@@H](CO)O2)c(=O)n1  inactive
 4  O=C(CCCN1CCC(O)(c2ccc(Cl)cc2)CC1)c1ccc(F)cc1  inactive
 5  CC(C)NCC(O)COc1ccc(CCOCC2CC2)cc1 (configuration not stated)  inactive
 6  CC(C)C(=O)Nc1ccc([N+](=O)[O-])c(C(F)(F)F)c1  inactive
 7      Clc1ccc2c(c1)C(N1CCNCC1)=Nc1ccccc1O2  inactive
 8  CS(=O)(=O)Nc1ccc([N+](=O)[O-])cc1Oc1ccccc1  inactive
 9       Cn1ccc2cc3c(cc21)CCN3C(=O)Nc1cccnc1  inactive
10    CN1CCN(CCCN2c3ccccc3Sc3ccc(Cl)cc32)CC1    active
11  COc1ccc2c(c1)c(CC(=O)O)c(C)n2C(=O)c1ccc(Cl)cc1  inactive
12           Cc1cc(C(C)(C)C)cc(C)c1CC1=NCCN1  inactive

Sourced from PubChem BioAssay (NCATS)
